Each item that follows carries a reported IC50.
# systemUnderTest: recombinant CaMKIIδ (Homo sapiens (Human))
# protocolDescription: CaMKIIδ biochemical assay (HTRF)
# particulars: 10 pM CaMKIIδ, 110 nM calmodulin, 12 μM ATP, 1 hour; read-out: CAMKIID-HTRF-384V2 (IC50 - nM)
Unit nM implied. Number only.

CCCN(CC)[C@@H](C)CNC(=O)c1cc(-c2cnn3ccc(-c4cccs4)nc23)nc(N2CC[C@H]2C(=O)NC)c1 ... 0.27

Hey, recombinant CaMKIIδ (Homo sapiens (Human)) data for CCN(CC)[C@@H](C)CNC(=O)c1cc(-c2cnn3ccc(-c4cccs4)nc23)nc(N2CC(NS(=O)(=O)CC)C2)c1 : IC50 came out at 0.16

Hey, recombinant CaMKIIδ (Homo sapiens (Human)) data for N[C@@H]1CCC[C@@H]2CCCN(C(=O)c3ccnc(-c4cnn5ccc(-c6cccs6)nc45)c3)[C@@H]21 : IC50 came out at 0.99

Hey, recombinant CaMKIIδ (Homo sapiens (Human)) data for COC1CN(c2cc(C(=O)N3CC4CCC(C3)NC4)cc(-c3cnn4ccc(-c5ccccc5)nc34)n2)C1 (stereo not shown) : IC50 came out at 14.1

Hey, recombinant CaMKIIδ (Homo sapiens (Human)) data for CCN(CC)[C@@H](C)CNC(=O)c1cc(-c2cnn3ccc(-c4cccs4)nc23)nc(N2CC(NC(=O)C3CC3)C2)c1 : IC50 came out at 0.22

Hey, recombinant CaMKIIδ (Homo sapiens (Human)) data for CCN(CC)[C@@H](C)CNC(=O)c1cc(-c2cnn3ccc(-c4cccs4)nc23)nc(N2CC(F)(F)C2)c1 : IC50 came out at 0.21

Hey, recombinant CaMKIIδ (Homo sapiens (Human)) data for CCN(CC)[C@@H](C)CNC(=O)c1cc(-c2cnn3ccc(-c4cccs4)nc23)nc(N2CC(NC(=O)N(C)C)C2)c1 : IC50 came out at 0.28
